- System: Mus musculus
- experimentNotes: Antiinflammatory activity against xylene-induced ear edema in Kunming mouse assessed as reduction in ear swelling thickness at 100 mg, ip administered 2 hrs post challenge measured after 30 mins
- Format: functional
inhibition (INH) for assorted compounds
Please reply with the bare figure in % and do not write the unit itself.

# count of solved cases: 3
{"compound": "CC1(C)Cc2c(-c3ccccc3)c(-c3ccc(Cl)cc3)c(C(=O)COC(=O)c3ccc(Cl)cc3)n2C1", "inhibition (INH), %": 29.7}
{"compound": "Cc1ccccc1C(=O)OCC(=O)c1c(-c2ccc(Cl)cc2)c(-c2ccccc2)c2n1CC(C)(C)C2", "inhibition (INH), %": 34.1}
{"compound": "CCC(=O)c1c(-c2ccc(Cl)cc2)c(-c2ccccc2)c2n1CC(C)(C)C2", "inhibition (INH), %": 22.5}

Task item: Which inhibition (INH) value is on record for CC1(C)Cc2c(-c3ccccc3)c(-c3ccc(Cl)cc3)c(C(=O)COC(=O)c3cccc(Cl)c3)n2C1 ?
Reply: 1.4

Task item: Which inhibition (INH) value is on record for CC(C)Cc1ccc(C(C)C(=O)O)cc1 (centres undefined) ?
Reply: 54.3
